Hello, the source for this data is ChEMBL document CHEMBL4184223, in case you need it.

# Assay overview: Toxicity in CD1 mouse primary cortical neurons assessed as effect on cell viability at 50 nM incubated for 24 hrs by CCK8 assay
# Format: cell-based, Cortical neurone
# Run conditions: read-out: Activity
Property measured: viability at 24 h, 0.05 µM (%)

Compound: CC(C)[C@]12O[C@H]1[C@@H]1O[C@]13[C@]1(O[C@H]1C[C@H]1C4=C(CC[C@@]13C)C(=O)OC4)[C@@H]2OC(=O)NC12CC3CC(C)(CC(C)(C3)C1)C2
Numeric value: 32.8
--
Compound: CC(C)[C@]12O[C@H]1[C@@H]1O[C@]13[C@]1(O[C@H]1C[C@H]1C4=C(CC[C@@]13C)C(=O)OC4)[C@@H]2O [TRIPTOLIDE]
Numeric value: 62.8

----------
# Assay overview: Stability in neurobasal cell culture medium supplemented with B-27 and N2 assessed as compound hydrolysis by LC-HR MS method
# Type: physicochemical
# Run conditions: read-out: Drug degradation
Quick reference for degraded among some compounds

Compound: CC(C)[C@]12O[C@H]1[C@@H]1O[C@]13[C@]1(O[C@H]1C[C@H]1C4=C(CC[C@@]13C)C(=O)OC4)[C@@H]2O [TRIPTOLIDE]
Uom: %
degraded: 13

Compound: CC(C)[C@]12O[C@H]1[C@@H]1O[C@]13[C@]1(O[C@H]1C[C@H]1C4=C(CC[C@@]13C)C(=O)OC4)[C@@H]2OC(=O)NC12CC3CC(C)(CC(C)(C3)C1)C2
Uom: %
degraded: 13
